Target: HIV-1 Env of isolate MGRM-G-028 (subtype G), on pseudovirus (HIV-1)
Assay: cell-based or functional assay
readout-kind: IC50 (µg/mL), neutralization of pseudovirus

>  <binder>
PGT-137 (antibody, V domains shown) VH: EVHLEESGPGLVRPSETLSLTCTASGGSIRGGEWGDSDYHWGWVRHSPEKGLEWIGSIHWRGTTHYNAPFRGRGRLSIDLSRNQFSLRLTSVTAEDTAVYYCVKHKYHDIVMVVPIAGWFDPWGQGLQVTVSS VL: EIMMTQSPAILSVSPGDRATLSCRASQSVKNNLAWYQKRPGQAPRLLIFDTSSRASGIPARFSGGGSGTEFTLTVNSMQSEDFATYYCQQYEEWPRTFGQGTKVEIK

>  <qualifying-sign>
>

>  <observed>
50

$$$$
>  <binder>
PGT-136 (antibody, V domains shown) VH: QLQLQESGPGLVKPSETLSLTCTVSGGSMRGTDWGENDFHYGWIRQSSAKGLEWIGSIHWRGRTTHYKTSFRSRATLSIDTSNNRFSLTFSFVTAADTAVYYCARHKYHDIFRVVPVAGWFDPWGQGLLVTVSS VL: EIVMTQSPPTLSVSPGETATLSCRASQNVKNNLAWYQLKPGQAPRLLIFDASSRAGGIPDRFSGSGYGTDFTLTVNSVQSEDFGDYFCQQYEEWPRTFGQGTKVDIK

>  <qualifying-sign>
>

>  <observed>
50

$$$$
>  <binder>
PGT-128 (antibody, V domains shown) VH: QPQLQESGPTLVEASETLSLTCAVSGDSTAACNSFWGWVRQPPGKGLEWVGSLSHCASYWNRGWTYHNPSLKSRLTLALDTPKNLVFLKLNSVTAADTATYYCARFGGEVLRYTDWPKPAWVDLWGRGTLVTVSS VL: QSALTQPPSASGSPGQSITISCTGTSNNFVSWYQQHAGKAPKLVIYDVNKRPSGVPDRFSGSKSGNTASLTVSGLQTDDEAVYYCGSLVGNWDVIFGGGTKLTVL

>  <qualifying-sign>
=

>  <observed>
0.008

$$$$
>  <binder>
PGT-130 (antibody, V domains shown) VH: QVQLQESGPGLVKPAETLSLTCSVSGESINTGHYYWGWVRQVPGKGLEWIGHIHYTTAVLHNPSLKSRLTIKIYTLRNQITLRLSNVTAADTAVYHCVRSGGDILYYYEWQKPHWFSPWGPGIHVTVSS VL: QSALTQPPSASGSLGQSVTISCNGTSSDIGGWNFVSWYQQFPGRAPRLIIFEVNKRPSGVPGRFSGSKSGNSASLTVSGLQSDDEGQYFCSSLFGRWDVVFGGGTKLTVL

>  <qualifying-sign>
=

>  <observed>
0.074

$$$$
>  <binder>
PGT-123 (antibody, V domains shown) VH: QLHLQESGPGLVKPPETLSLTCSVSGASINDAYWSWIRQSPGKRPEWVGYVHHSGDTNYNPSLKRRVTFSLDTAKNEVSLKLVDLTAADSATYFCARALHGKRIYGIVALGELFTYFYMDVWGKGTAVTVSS VL: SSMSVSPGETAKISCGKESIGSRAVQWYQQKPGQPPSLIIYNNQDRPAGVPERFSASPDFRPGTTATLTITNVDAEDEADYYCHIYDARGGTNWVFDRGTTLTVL

>  <qualifying-sign>
=

>  <observed>
0.008

$$$$
